Values were extracted from patent US20240124585A1.

The following binders are listed with their measured HUT78 Bmax values.
target: T1, human CD3 on T-cell lines (CD3-expressing Jurkat cells; HUT78 cells) (human, UniProt P07766 23-207); assay: flow cytometry, HUT78 cells
T1 construct: On cells it stands in the CD3/TCR complex
T1 sequence (P07766 23-207 limits assumed): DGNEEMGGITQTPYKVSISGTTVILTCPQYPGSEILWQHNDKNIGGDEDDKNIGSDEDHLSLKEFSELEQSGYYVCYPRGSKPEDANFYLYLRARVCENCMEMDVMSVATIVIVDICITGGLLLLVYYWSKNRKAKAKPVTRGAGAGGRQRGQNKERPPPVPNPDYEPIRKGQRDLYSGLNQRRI
Just the number, please, no unit attached.

Below: 2 binders and their reported HUT78 Bmax.
SRP 2037-B10 Y55D/LC5 (antibody, human IgG1, kappa, V domains shown, human IgG1, kappa) VH: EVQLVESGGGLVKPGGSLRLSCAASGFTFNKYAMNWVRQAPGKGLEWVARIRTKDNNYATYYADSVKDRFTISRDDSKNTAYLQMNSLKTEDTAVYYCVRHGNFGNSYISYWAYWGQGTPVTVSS VL: DTQVTQSPSLSASVGDRVTITCGSSTGAVTSGYYPNWLQQKPGQAPRGLIGGTKFLAPGVPSRFSGSGSGTDFTLTISSLQPEDFATYYCALWYSNRWVFGGGTKVEIKR    442
SRP 2037-B10 Y55D/R97D (antibody, human IgG1, lambda, V domains shown, human IgG1, lambda) VH: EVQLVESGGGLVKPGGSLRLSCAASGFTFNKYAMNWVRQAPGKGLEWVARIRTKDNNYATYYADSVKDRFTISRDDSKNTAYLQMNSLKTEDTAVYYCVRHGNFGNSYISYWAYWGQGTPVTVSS VL: QTVVTQEPSLTVSPGGTVTLTCGSSTGAVTSGYYPNWLQQKPGQAPRGLIGGTKFLAPGTPARFSGSLLGGKAALTLSGVQPEDEAEYYCALWYSNDWVFGGGTQLTVTG    1190

// returns reported HUT78 Bmax for input 2037-B10_Hc-S107D (antibody, human IgG1, lambda, V domains shown, human IgG1, lambda; also called SRP 2037 S107D; 2037-B10_VH-S107D) VH: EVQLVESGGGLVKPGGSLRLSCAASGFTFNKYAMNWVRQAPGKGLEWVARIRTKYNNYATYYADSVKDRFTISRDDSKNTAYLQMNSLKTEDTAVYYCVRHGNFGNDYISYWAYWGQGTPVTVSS VL: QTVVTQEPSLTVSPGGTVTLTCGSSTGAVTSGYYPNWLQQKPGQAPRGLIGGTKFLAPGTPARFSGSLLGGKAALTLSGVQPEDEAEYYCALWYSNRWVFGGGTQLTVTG
1630
